- measurement target: human DP2 (Homo sapiens (Human), UniProt Q9Y5Y4)
- Sequence (Q9Y5Y4 whole entry): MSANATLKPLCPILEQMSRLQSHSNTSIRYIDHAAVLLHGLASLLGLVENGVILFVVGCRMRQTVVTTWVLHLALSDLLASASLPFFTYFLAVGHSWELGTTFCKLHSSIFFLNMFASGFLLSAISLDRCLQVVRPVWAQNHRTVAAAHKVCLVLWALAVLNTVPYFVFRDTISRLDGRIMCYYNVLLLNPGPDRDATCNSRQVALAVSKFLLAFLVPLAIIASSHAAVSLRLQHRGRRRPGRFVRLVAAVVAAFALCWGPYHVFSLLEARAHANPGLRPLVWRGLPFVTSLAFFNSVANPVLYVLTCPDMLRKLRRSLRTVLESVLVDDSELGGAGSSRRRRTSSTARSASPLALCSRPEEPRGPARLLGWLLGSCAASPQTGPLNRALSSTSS
- protocol text: DP-2 Binding Inhibition Assay (3H-PGD2 binding to membranes of K562 cells expressing DP2)
- recorded conditions: EC50 (nM) 4% HSA, inhibition of 3H-PGD2 binding, 4% HSA
Listed here are compounds together with their documented EC50.

compound: O=C(NC1CCC(c2ccccc2)CC1)c1ccc(Oc2cc3c(cc2Cl)C(C(=O)O)CCO3)cc1 (single isomer, unassigned) [Example 155 peak 1]
EC50: 399 nM

compound: COc1cc(C2CC2)ccc1CCNC(=O)c1ccc(Oc2cc3c(cc2Cl)C(C(=O)O)CCO3)cc1 (single isomer, unassigned) [235 Enantiomer 1]
EC50: > 5000 nM

compound: O=C(NCCc1ccc(Cl)cc1)c1ccc(Oc2cc3c(cc2Cl)C(C(=O)O)CCO3)cc1 (single isomer, unassigned) [Example 11 Enantiomer 2]
EC50: 111 nM

compound: O=C(NCCc1ccc(Cl)cc1Cl)c1ccc(Oc2cc3c(cc2Cl)C(C(=O)O)CCO3)cc1 (single isomer, unassigned) [Example 106 Enantiomer 1]
EC50: > 5000 nM

compound: O=C(NCCc1ccccc1)c1ccc(Oc2cc3c(cc2Cl)C(C(=O)O)CCO3)cc1 (stereo not drawn)
EC50: 794 nM

QUERY: Could you tell me which EC50 is on file for O=C(NC1CCC(c2ccccc2)CC1)c1ccc(Oc2cc3c(cc2Cl)C(C(=O)O)CCO3)cc1 (single isomer, unassigned) [Example 155 peak 2] ?
RESULT: 1670 nM

###

Reported EC50 by item:
- measurement target: human DP2 (Homo sapiens (Human), UniProt Q9Y5Y4)
- protocol text: DP-2 Binding Inhibition Assay (3H-PGD2 binding to membranes of K562 cells expressing DP2)
- recorded conditions: read-out: EC50 (nM) 4% HSA; inhibition of 3H-PGD2 binding, 4% HSA
Report the value in nM with no unit label.

Reference set, count: 5
molecule: O=C(NCCc1ccccc1-c1cccc(Cl)c1)c1ccc(Oc2cc3c(cc2Cl)C(C(=O)O)CCO3)cc1 (stereo not drawn)
EC50, nM: 91.8
//
molecule: CSc1cc(Cl)ccc1CCNC(=O)c1ccc(Oc2cc3c(cc2Cl)C(C(=O)O)CCO3)cc1 (stereo not drawn)
EC50, nM: 67.5
//
molecule: O=C(NCCC1CCCC1)c1ccc(Oc2cc3c(cc2Cl)C(C(=O)O)CCO3)cc1 (stereo not drawn)
EC50, nM: 538
//
molecule: Cc1ccc(-c2cccc(NC(=O)c3ccc(Oc4cc5c(cc4C#N)C(C(=O)O)CCO5)cc3)c2)cc1 (stereo not drawn)
EC50, nM: 115
//
molecule: O=C(NCC/C=C\c1ccccc1Cl)c1ccc(Oc2cc3c(cc2Cl)C(C(=O)O)CCO3)cc1 (stereo not drawn)
EC50, nM: 318

QUERY: I would be grateful if you could share the reported EC50 for O=C(NCCCc1ccc(Cl)cc1)c1ccc(Oc2cc3c(cc2Cl)C(C(=O)O)CCO3)cc1 (stereo not drawn) .
RESULT: 356

QUERY: EC50 for COc1ccc(C2CCC(NC(=O)c3ccc(Oc4cc5c(cc4Cl)C(C(=O)O)CCO5)cc3)C2)cc1 (stereo not drawn) ?
RESULT: 723

QUERY: Please report the recorded EC50 for COc1cc(CCNC(=O)c2ccc(Oc3cc4c(cc3C#N)C(C(=O)O)CCO4)cc2)ccc1Cl (stereo not drawn) .
RESULT: 625

QUERY: Consider the molecule shown here: O=C(NCCc1ccc(Cl)cc1-c1ccccc1Cl)c1ccc(Oc2cc3c(cc2Cl)C(C(=O)O)CCO3)cc1 (stereo not drawn) What is its recorded EC50?
RESULT: 126

QUERY: Return reported EC50; argument: CN(C)Cc1ccc(CCNC(=O)c2ccc(Oc3cc4c(cc3C#N)C(C(=O)O)CCO4)cc2)cc1 (stereo not drawn)
RESULT: 3480

QUERY: Which EC50 value is on record for O=C(NCCc1ccc(F)cc1Cl)c1ccc(Oc2cc3c(cc2Cl)C(C(=O)O)CCO3)cc1 (stereo not drawn) ?
RESULT: 190

QUERY: Look at this molecule and give its reported EC50. Cc1nccc(-c2cccc(NC(=O)c3ccc(Oc4cc5c(cc4C#N)C(C(=O)O)CCO5)cc3)c2)n1 (stereo not drawn)
RESULT: 995

QUERY: # query: EC50 of entry O=C(NC1CCC(c2ccccc2)C1)c1ccc(Oc2cc3c(cc2Cl)C(C(=O)O)CCO3)cc1 (stereo not drawn)
RESULT: 401

QUERY: Could you tell me which EC50 is on file for O=C(NCCc1ccc(Cl)cc1)c1ccc(Oc2c(Cl)cc3c(c2Cl)OCCC3C(=O)O)cc1 (stereo not drawn) ?
RESULT: 176

QUERY: Would you kindly share the measured EC50 for O=C(NCCc1ccc(-c2ccccc2)cc1Cl)c1ccc(Oc2cc3c(cc2Cl)C(C(=O)O)CCO3)cc1 (stereo not drawn) ?
RESULT: 91.4

QUERY: Can you look up the measured EC50 of Cc1cccc(-c2cccc(NC(=O)c3ccc(Oc4cc5c(cc4C#N)C(C(=O)O)CCO5)cc3)c2)c1C (stereo not drawn) for me?
RESULT: 104

QUERY: Bench note: what EC50 did O=C(NC1CCC(c2ccc(Cl)cc2)CC1)c1ccc(Oc2cc3c(cc2Cl)C(C(=O)O)CCO3)cc1 (stereo not drawn) show?
RESULT: 339

QUERY: Give its EC50 value. Item: O=C(NCC/C=C\c1ccc(Cl)cc1Cl)c1ccc(Oc2cc3c(cc2Cl)C(C(=O)O)CCO3)cc1 (stereo not drawn)
RESULT: 502

QUERY: Fill in: EC50 of COc1cc(C2CC2)ccc1CCNC(=O)c1ccc(Oc2cc3c(cc2Cl)C(C(=O)O)CCO3)cc1 (stereo not drawn) is ___
RESULT: 93

QUERY: Form field: reported EC50 of O=C(NCCc1ccc(F)cc1F)c1ccc(Oc2cc3c(cc2Cl)C(C(=O)O)CCO3)cc1 (stereo not drawn)
RESULT: 191

QUERY: Please give the measured EC50 for this molecule: Cc1ccc(C2CCC(NC(=O)c3ccc(Oc4cc5c(cc4Cl)C(C(=O)O)CCO5)cc3)C2)cc1 (stereo not drawn)
RESULT: 272

###

- measurement target: human DP2 (Homo sapiens (Human))
- protocol text: DP-2 Binding Inhibition Assay (3H-PGD2 binding to membranes of K562 cells expressing DP2)
- recorded conditions: read-out: EC50 (nM) 4% HSA; inhibition of 3H-PGD2 binding, 4% HSA
- Method: DP-2 Binding Inhibition Assay The coding sequence of human DP2 was introduced into the human Leukemic cell line K562 by electroporation and stable clones expressing DP2 were obtained by limiting dilution followed by cell surface staining with a rat monoclonal antibody specific for human DP2. […] Radioactivity was measured by a scintillation counter (TopCount; PerkinElmer Life Sciences, Boston, Mass.). […]
Each record is given YES if its reported EC50 is strictly below 300 nM. Records at or above 300 nM are given NO.

compound: COc1cc(OC)c(CCNC(=O)c2ccc(Oc3cc4c(cc3Cl)C(C(=O)O)CCO4)cc2)c(OC)c1 (stereo not shown)
label value: YES
//
compound: O=C(NCCCCc1ccc(Cl)cc1Cl)c1ccc(Oc2cc3c(cc2Cl)C(C(=O)O)CCO3)cc1 (stereo not shown)
label value: NO
//
compound: O=C(NCCc1ccccc1-c1ccccc1)c1ccc(Oc2cc3c(cc2Cl)C(C(=O)O)CCO3)cc1 (stereo not shown)
label value: YES

QUERY: Quick check: does Cc1ccc(CCNC(=O)c2ccc(Oc3cc4c(cc3Cl)C(C(=O)O)CCO4)cc2)c(C)c1 (stereo not shown) have EC50 under 300 nM?
RESULT: YES

QUERY: Does COc1cccc(CCNC(=O)c2ccc(Oc3cc4c(cc3Cl)C(C(=O)O)CCO4)cc2)c1OC (stereo not shown) have EC50 strictly under 300 nM?
RESULT: YES

###

- measurement target: human DP2 (Homo sapiens (Human), UniProt Q9Y5Y4)
- protocol text: DP-2 Binding Inhibition Assay (3H-PGD2 binding to membranes of K562 cells expressing DP2)
- recorded conditions: read-out: EC50 (Nm) 1% HSA; inhibition of 3H-PGD2 binding, 1% HSA
measurement kind: pEC50
// pEC50 here means minus log10 of the molar concentration (mol/L)

Please review the entries below; each comes with its answer.
compound: O=C(NCCc1ccc(Cl)cc1)c1ccc(Oc2ccc3c(c2)OCCC3C(=O)O)cc1 (centres unmarked)
measurement target: human DP2 (Homo sapiens (Human), UniProt Q9Y5Y4)
result value: 6.97
--
compound: C[C@@H](CNC(=O)c1ccc(Oc2cc3c(cc2C#N)C(C(=O)O)CCO3)cc1)c1ccccc1 (some centres unmarked)
measurement target: human DP2 (Homo sapiens (Human), UniProt Q9Y5Y4)
result value: 7.59
--
compound: N#Cc1cc2c(cc1Oc1ccc(C(=O)NCC3(c4ccc(Cl)cc4)CC3)cc1)OCCC2C(=O)O (centres unmarked)
measurement target: human DP2 (Homo sapiens (Human), UniProt Q9Y5Y4)
result value: 5.98
--
compound: N#Cc1cc2c(cc1Oc1ccc(C(=O)NCCc3ccc4ccccc4c3)cc1)OCCC2C(=O)O (centres unmarked)
measurement target: human DP2 (Homo sapiens (Human), UniProt Q9Y5Y4)
result value: 7.85

QUERY: Any idea what pEC50 was measured for N#Cc1cc2c(cc1Oc1ccc(C(=O)Nc3ccc4ccccc4c3)cc1)OCCC2C(=O)O (centres unmarked) ?
RESULT: 8.17

QUERY: Could you tell me which pEC50 is on file for N#Cc1cc2c(cc1Oc1ccc(C(=O)NCCc3ccc(F)cc3)cc1)OCCC2C(=O)O (centres unmarked) ?
RESULT: 7.65

QUERY: Find the recorded pEC50 belonging to COc1ccc2c(c1)CCC(NC(=O)c1ccc(Oc3cc4c(cc3C#N)C(C(=O)O)CCO4)cc1)C2 (centres unmarked) and report it.
RESULT: 7.22

QUERY: Give the measured pEC50 of N#Cc1cc2c(cc1Oc1ccc(C(=O)NC3CC3c3ccccc3)cc1)OCCC2C(=O)O (centres unmarked) .
RESULT: 7.92

Data origin, for the record: patent US9556139B2
